B1: NET1 (parent)
chain: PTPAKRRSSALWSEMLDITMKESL

# Variants of: B1
# Assay remarks: protein stability index of a GFP-peptide fusion (GPS, HEK-293T) (PSI 1-6); higher = more stable;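 also: lentivirally expressed fusions sorted by FACS into six bins by GFP to DsRed ratio, PSI derived from sequencing read proportions per bin multiplied by bin number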
# Experimental conditions: c terminus: a fixed tail appended
Recorded protein stability index by entry
Form: value (number only, do not type unit).

>>> print(df.to_string())
               biopolymer_sequence  recorded_result
0  PTPAKRRSSALWSEMLDIWMKESL [T19W]             1.61
1   PTPAKRRMSALWSEMLDITMKESL [S8M]             1.59
2   PTPAWRRSSALWSEMLDITMKESL [K5W]             1.54
3   PTPAKRRQSALWSEMLDITMKESL [S8Q]             2.33

In plain terms, PTPAKRRSNALWSEMLDITMKESL [S9N] has a documented protein stability index of 2.21

Value of measured protein stability index for the entry PTPAKRRSSALWSEMLDITMKESN [L24N] : 3.01

Recorded result, PTGAKRRSSALWSEMLDITMKESL [P3G] , protein stability index: 2.27

Data origin, for the record: the supplement of paper PMC10567573
